Target: cPLA2 (Homo sapiens)
Sequence (P47712 1-749): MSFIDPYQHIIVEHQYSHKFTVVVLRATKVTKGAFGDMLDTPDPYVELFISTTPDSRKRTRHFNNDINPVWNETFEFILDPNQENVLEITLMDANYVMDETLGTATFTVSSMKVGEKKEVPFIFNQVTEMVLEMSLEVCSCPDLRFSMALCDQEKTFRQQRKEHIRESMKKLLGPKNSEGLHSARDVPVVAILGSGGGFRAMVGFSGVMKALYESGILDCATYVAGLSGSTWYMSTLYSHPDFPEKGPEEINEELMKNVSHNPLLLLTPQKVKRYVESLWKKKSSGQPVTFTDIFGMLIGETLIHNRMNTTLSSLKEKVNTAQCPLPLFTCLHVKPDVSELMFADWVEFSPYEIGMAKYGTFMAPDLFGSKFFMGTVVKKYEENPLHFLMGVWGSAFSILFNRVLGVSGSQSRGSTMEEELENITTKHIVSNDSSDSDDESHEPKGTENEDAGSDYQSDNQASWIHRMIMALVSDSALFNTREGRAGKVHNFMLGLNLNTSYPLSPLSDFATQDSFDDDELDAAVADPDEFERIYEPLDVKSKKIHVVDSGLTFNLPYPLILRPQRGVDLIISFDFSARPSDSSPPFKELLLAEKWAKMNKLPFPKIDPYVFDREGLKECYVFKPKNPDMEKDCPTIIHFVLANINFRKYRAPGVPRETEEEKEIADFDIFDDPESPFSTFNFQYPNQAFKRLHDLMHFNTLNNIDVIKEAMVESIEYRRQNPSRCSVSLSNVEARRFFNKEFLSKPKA
Assay: cPLA2 activity on TX-100/PAPC mixed micelles, inhibition by 2-oxoamides
Format: biochemical
Details: mixed micelles TX-100 400 μM, PAPC 97 μM, PIP2 3 μM (0.6 mole %)
Here, each record is paired with measured XI(50) data.
outcome measure: XI(50)

[[record]]
smiles_data = "CCCCCCCCCCOC[C@@H](CCC(=O)O)NC(=O)C(=O)CCCCCCCCCC"
study_system = "cPLA2 (Homo sapiens)"
result_value = "0.047±0.006 mole fraction"

[[record]]
smiles_data = "CCOC[C@H](CCC(=O)O)NC(=O)C(=O)CC"
study_system = "cPLA2 (Homo sapiens)"
result_value = "0.045±0.007 mole fraction"

[[record]]
smiles_data = "CCCCCCCCCCCCCCC(=O)C(=O)NCCCC(=O)O"
study_system = "cPLA2 (Homo sapiens)"
result_value = "0.017±0.009 mole fraction"

[[record]]
smiles_data = "CCCCCCCCCCC(=O)C(=O)N[C@H](CCCC)CCC(=O)O"
study_system = "cPLA2 (Homo sapiens)"
result_value = "0.068±0.005 mole fraction"


###

Biological target: cPLA2 (Homo sapiens, UniProt P47712)
Assay: cPLA2 activity on TX-100/PAPC mixed micelles, inhibition by 2-oxoamides
Format: biochemical
Settings: Table 2; iPLA2
outcome measure: XI(50) (mole fraction)

[[record]]
smiles_data = "CCCCCCCCCCC(=O)C(=O)N[C@H](CCCC)CCC(=O)O"
study_system = "cPLA2 (Homo sapiens, UniProt P47712)"
result_value = 0.068

[[record]]
smiles_data = "CCCCCCCCCCCCCC(=O)C(=O)N[C@@H](CCCC)CC(=O)O"
study_system = "cPLA2 (Homo sapiens, UniProt P47712)"
result_value = 0.027

[[record]]
smiles_data = "CCCCCCCCCCCCCC(=O)C(=O)N[C@H](CCC(=O)O)Cc1ccccc1"
study_system = "cPLA2 (Homo sapiens, UniProt P47712)"
result_value = 0.035

[[record]]
smiles_data = "CCCCCCCCCCOC[C@@H](CCC(=O)O)NC(=O)C(=O)CCCCCCCCCC"
study_system = "cPLA2 (Homo sapiens, UniProt P47712)"
result_value = 0.047

[[record]]
smiles_data = "CCCCCCCCCCC(=O)C(=O)N[C@@H](CCCC)CCCCC(=O)O"
study_system = "cPLA2 (Homo sapiens, UniProt P47712)"
result_value = 0.018


###

Target: cPLA2 (Homo sapiens)
Sequence (P47712 1-749): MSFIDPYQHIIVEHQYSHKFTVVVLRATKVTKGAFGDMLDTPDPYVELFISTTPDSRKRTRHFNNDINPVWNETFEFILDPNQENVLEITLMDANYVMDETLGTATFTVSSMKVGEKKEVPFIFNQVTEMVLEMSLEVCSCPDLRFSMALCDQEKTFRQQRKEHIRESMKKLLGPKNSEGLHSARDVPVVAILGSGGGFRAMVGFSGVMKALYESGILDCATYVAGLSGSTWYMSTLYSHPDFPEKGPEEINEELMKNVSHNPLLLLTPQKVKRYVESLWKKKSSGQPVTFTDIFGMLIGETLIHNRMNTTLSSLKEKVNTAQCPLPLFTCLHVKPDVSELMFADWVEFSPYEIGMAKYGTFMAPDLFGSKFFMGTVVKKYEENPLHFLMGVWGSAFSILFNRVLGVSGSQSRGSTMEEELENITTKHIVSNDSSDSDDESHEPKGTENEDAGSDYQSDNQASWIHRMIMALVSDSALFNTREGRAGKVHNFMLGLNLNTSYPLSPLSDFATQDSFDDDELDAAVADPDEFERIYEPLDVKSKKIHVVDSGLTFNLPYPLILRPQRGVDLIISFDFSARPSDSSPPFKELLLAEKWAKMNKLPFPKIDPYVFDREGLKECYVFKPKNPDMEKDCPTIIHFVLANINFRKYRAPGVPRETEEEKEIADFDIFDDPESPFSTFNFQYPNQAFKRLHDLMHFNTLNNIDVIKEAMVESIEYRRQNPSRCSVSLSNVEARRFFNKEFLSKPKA
Assay: cPLA2 activity on TX-100/PAPC mixed micelles, inhibition by 2-oxoamides
Assay type: biochemical
Conditions: Table 2; iPLA2
outcome measure: XI(50) (mole fraction)

[[record]]
compound = "CCCCCCCCCCCCCCC(=O)C(=O)N[C@@H](CCC(=O)O)C(=O)NCCCCCCCCCC [OA15]"
result_value = 0.044

[[record]]
compound = "CCCCCCCCCCCCCC(=O)C(=O)N[C@H](CCC(=O)O)CC(C)C [OA12]"
result_value = 0.017

[[record]]
compound = "CCOC[C@H](CCC(=O)O)NC(=O)C(=O)CC [OA10]"
result_value = 0.045

[[record]]
compound = "CCCCCCCCCCCCCCC(=O)C(=O)NCCCC(=O)O [OA1]"
result_value = 0.017

[[record]]
compound = "CCCCCCCCCCC(=O)C(=O)N[C@@H](CCCC)CCC(=O)O [OA4]"
result_value = 0.009

[[record]]
compound = "CCCCCCCCCCC(=O)C(=O)N[C@H](CCC(=O)O)CC(C)C [OA13]"
result_value = 0.033

[[record]]
compound = "CCCCCCCCCCCCCC(=O)C(=O)N[C@@H](CCCC)CCCC(=O)O [OA5]"
result_value = 0.008


###

Biological target: cPLA2 (Homo sapiens)
Assay: cPLA2 activity on TX-100/PAPC mixed micelles, inhibition by 2-oxoamides
Assay type: biochemical
Settings: result in words
outcome measure: Inhibition of cPLA2

[[record]]
compound = "O=C(O)CCCNC(=O)C(=O)CCCc1ccccc1 [OA36]"
result_value = "lack of inhibition"

[[record]]
compound = "COC(=O)CCCNC(=O)C(=O)CCCCc1ccccc1 [OA20]"
result_value = "do not inhibit"

[[record]]
compound = "COC(=O)CCCNC(=O)C(=O)CCCc1ccccc1 [OA34]"
result_value = "do not inhibit"

[[record]]
compound = "O=C(O)CCCNC(=O)C(=O)CCCCc1ccccc1 [OA35]"
result_value = "lack of inhibition"

[[record]]
compound = "CCNC(=O)OC[C@H](CCC(=O)OC)NC(=O)C(=O)CC [OA26]"
result_value = "does"

